# TEST_SYSTEM: UniProtKB P03070
# Sequence (P03070 whole entry): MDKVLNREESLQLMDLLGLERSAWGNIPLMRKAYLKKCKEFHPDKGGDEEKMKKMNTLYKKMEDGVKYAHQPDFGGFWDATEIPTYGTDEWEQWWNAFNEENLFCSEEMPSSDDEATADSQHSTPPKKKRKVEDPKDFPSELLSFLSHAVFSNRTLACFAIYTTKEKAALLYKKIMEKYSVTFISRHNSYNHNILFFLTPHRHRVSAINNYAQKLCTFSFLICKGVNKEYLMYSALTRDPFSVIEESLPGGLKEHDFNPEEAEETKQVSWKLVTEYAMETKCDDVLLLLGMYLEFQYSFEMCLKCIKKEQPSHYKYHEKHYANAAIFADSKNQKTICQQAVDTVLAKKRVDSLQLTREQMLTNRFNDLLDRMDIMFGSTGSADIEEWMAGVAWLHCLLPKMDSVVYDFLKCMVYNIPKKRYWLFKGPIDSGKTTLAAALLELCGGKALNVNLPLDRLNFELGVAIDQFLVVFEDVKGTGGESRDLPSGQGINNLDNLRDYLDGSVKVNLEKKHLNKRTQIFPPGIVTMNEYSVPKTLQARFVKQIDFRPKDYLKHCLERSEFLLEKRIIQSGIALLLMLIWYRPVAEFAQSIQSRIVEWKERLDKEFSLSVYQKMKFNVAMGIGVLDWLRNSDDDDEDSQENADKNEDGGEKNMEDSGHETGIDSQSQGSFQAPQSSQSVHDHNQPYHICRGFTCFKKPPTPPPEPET
# Assay type: functional, Betapolyomavirus macacae
Calls of active or inactive are those of the source.
Below is a list of entries, each paired with its recorded IC50 value.
ENDPOINT_LABEL: IC50

- COC/C=C/C1=CC2=CC(=O)C(C)(OC(=O)CCC(=O)OC)C(=O)C2=CO1 (centres undefined): > 100 µM (active)
- COc1cc(/C=N/NC(=O)c2cnccn2)ccc1O: 5.52 µM (active)
- CN(C)c1ccc(/C=C/c2cc[n+]([O-])cc2)cc1: 11.4 µM (active)
- COc1ccc(NC2CCCN(C(=O)CCn3cccn3)C2)cc1 (centres undefined): 9.68 µM (active)
- Clc1cc(NCc2cccs2)ccc1N1CCOCC1: 65.2 µM (active)
- Cc1ccc(-c2ccc(/C=C3\C(=O)ON=C3c3ccccc3)o2)c([N+](=O)[O-])c1: 29.5 µM (active)
- C/C(=N/NC(=O)c1cc(O)c(O)c(O)c1)c1ccc([N+](=O)[O-])cc1: 8.68 µM (active)
- O=C(CSc1nc2ccccc2n1CCc1ccccc1)c1ccc(O)c(O)c1: 35.9 µM (active)
- O=C(Nc1ccc(O)cc1)C1CCCO1 (centres undefined): 28.1 µM (active)

====

# TEST_SYSTEM: Kappa-type opioid receptor (Homo sapiens)
# Sequence (P41145 whole entry): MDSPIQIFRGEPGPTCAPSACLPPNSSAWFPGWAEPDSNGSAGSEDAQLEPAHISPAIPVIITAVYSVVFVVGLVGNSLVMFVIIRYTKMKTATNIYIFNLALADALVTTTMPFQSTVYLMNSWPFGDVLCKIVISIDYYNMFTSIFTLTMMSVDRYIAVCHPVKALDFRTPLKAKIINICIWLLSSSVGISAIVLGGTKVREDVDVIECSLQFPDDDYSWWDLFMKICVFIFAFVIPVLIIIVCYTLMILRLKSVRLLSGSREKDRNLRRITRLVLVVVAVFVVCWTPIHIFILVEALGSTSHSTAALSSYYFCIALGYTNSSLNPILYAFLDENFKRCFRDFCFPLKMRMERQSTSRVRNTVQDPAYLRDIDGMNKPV
# Format: functional
pIC50: −log10 of the molar value.
Below is a list of entries, each paired with its recorded pIC50 value.
ENDPOINT_LABEL: pIC50

* Cc1ccc(C(=O)NC2CC3CCCC(C2)N3Cc2ccccc2)cc1 (stereo not drawn) | < 4.49
* COc1ccc(NC(=S)NC(NC(=O)c2ccccc2Cl)C(Cl)(Cl)Cl)c([N+](=O)[O-])c1 (stereo not drawn) | 5.29
* Cc1ccc2c(C)ccc(O)c2n1 | < 4.49

====

# TEST_SYSTEM: Nucleotide-binding oligomerization domain-containing protein 2 (Homo sapiens, UniProt Q9HC29)
# Sequence (Q9HC29 whole entry, the tested form may be a part): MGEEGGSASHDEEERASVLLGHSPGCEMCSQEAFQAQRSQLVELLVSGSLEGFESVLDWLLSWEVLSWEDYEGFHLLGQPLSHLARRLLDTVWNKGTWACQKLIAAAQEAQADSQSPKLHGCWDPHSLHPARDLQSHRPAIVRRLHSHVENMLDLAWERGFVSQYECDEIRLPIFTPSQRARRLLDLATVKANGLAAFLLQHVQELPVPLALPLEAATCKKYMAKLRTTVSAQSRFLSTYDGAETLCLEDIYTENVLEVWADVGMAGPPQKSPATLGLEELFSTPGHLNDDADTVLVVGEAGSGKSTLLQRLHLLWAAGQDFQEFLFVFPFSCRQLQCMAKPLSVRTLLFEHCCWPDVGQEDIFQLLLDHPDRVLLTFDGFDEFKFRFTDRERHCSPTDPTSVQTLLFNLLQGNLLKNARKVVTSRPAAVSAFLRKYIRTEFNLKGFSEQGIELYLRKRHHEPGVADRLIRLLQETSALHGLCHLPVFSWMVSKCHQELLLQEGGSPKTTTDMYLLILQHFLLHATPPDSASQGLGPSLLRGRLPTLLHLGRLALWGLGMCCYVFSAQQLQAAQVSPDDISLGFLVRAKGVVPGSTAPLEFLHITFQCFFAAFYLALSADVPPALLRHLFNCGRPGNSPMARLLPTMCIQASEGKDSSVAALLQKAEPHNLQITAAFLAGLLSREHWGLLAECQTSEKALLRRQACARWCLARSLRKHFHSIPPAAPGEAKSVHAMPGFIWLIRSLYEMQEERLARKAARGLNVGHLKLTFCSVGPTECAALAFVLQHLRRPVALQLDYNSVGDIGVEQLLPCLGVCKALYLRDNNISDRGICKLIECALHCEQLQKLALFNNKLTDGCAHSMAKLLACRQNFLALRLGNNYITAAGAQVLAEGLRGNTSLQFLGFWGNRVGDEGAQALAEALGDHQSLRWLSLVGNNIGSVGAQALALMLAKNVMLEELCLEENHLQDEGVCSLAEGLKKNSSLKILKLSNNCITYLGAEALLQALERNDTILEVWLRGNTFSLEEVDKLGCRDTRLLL
# ASSAY_COMMENT: NOD2 signaling inhibitors, cell-based, luminescence, uHTS, HEK293 (AID 1566)
# Type: functional
Activity calls are given as the source filed them.
Possible outcomes: t for active, f for inactive

* O=C(c1ccc(S(=O)(=O)c2cccc(Cl)c2)c([N+](=O)[O-])c1)N1CCN(c2ccccn2)CC1 | t
* COCCn1c(C)cc(C(=O)CSc2ncnc3sc4c(c23)CCC4)c1C | t
* CC(=O)NC(c1cccc([N+](=O)[O-])c1)c1ccc2cccnc2c1O (configuration not stated) | f
* Cc1ccc2c(C)ccc(O)c2n1 | f
* Cc1ccc(NC(=O)C2CCN(S(=O)(=O)c3ccc4c(c3)NC(=O)C(C)S4)CC2)cc1Cl (configuration not stated) | t
* Cc1nn(-c2ccccc2)c2nc(C(Cl)(Cl)Cl)[nH]c(=O)c12 | t
* COc1cccc(OCCOc2ccc(/C=C3/SC(=S)NC3=O)cc2)c1 | t

====

# TEST_SYSTEM: Corticotropin-releasing factor receptor 2/Corticotropin-releasing factor-binding protein (Homo sapiens, UniProt P24387+Q13324)
# Sequence (Q13324 whole entry): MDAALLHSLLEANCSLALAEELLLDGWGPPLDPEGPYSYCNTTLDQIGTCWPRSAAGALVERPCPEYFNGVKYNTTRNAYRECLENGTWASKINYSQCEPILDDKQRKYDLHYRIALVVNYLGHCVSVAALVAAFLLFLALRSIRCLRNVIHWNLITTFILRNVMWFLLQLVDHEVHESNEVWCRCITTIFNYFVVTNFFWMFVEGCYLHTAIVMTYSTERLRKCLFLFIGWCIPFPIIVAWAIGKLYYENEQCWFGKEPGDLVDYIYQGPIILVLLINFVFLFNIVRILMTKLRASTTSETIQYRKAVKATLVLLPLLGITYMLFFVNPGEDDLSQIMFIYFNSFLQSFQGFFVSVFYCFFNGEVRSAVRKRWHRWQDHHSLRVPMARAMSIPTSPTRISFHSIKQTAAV
# Sequence (P24387 whole entry): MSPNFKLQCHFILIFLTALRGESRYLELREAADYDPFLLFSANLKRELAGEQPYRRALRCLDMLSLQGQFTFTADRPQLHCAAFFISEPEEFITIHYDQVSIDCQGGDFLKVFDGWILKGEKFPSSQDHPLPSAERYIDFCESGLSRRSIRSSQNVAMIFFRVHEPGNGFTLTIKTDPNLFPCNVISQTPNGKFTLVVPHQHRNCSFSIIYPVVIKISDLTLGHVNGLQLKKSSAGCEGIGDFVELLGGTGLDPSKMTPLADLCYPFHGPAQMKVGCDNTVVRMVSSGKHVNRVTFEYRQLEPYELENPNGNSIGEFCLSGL
# ASSAY_COMMENT: activators of CRF receptor 2 with binding protein – uHTS hits, confirmation (AID 602473)
# Type: functional
# STATED_CONDITIONS: read-out: EC50_Mean
Activity calls are given as the source filed them.
Possible outcomes: true (1) = active, false (0) = inactive

- O=C(NCC1CCCO1)c1onc(CSc2cccc3ccccc23)c1C(=O)O (stereo unspecified): false (0)
- COc1ccc(C(c2nnnn2Cc2ccccc2)N2CCN(c3ccccc3)CC2)cc1 (stereo unspecified): false (0)
- COc1ccc(/C=C2\SC(=S)N(C(Cc3ccccc3)C(=O)O)C2=O)cc1 (stereo unspecified): true (1)
- Cc1onc(-c2ccccc2)c1C(=O)N/N=C/c1cc(Br)c(Br)o1: false (0)
- O=C(C1CCCC1)N1CCCC(Nc2ccc(F)cc2)C1 (stereo unspecified): false (0)
- CC(C)CN(CC(C)C)C(=O)CCCC(=O)N(CC(C)C)CC(C)C: false (0)
